Known TGI of a selection of compounds
test system: MDA-N; assay: NCI tumour cell line growth inhibition, 48 h

Compound	Unit name	Qualifier symbol	TGI
COc1cc(NCc2ccc3n2-c2ccccc2OC3)cc(OC)c1OC	µM	=	72.4
COc1ccc2[nH]c3c(C)c4cnccc4c(C)c3c2c1	µM	=	3.43
CC1(C)S[C@@H]2[C@H](NC(=O)/C=C/c3ccccc3)C(=O)N2[C@H]1C(=O)O	µM	>	100
O=C(CCO)OCCCCCC/C=C\CCCCCC/C=C\CCCCCCCCOC(=O)CCO	µM	=	33.2
CCOc1ccc2c(c1)NC(=O)C(C1OC(c3ccccc3)=CC1=O)S2 (stereo unspecified)	µM	=	77.4
CC(=O)O/C=C\OC1CCCC1	µM	>	100
c1cnc2c(c1)Nc1cnncc1S2	µM	>	100
CN(NC(=O)c1cccs1)C1=NCCN1	µM	>	100
CC(C)(C)OC(=O)N/N=C(/N)c1ccccc1	µM	>	100
CCOC(=O)c1c(N2CCOCC2)[nH]c(=O)c(C(c2ccc(Cl)c([N+](=O)[O-])c2)c2c(O)c(C(=O)OCC)c(N3CCOCC3)[nH]c2=O)c1O	µM	=	70.1
CC1OC(OC2C(O[C@@H]3C[C@@H]4CC[C@@H]5[C@H](CC[C@]6(C)[C@@H]7[C@H](C[C@@H]56)O[C@]5(CC[C@@H](C)CO5)[C@H]7C)[C@@]4(C)C[C@H]3O)OC(CO)C(OC3OC(CO)C(O)C(O)C3O)C2O)C(O)C(O)C1O (stereo partly specified)	µM	=	3.37

----------
test system: UACC-62 melanoma; assay: NCI tumour cell line growth inhibition, 48 h; in the data active = GI50 below about 0.43 µM; inactive = the rest
Outcomes: y for active, n for inactive

Smiles	Class
CC[O-].CC[O-].O=C([CH-]C(=O)c1ccccc1)c1ccccc1.O=C([CH-]C(=O)c1ccccc1)c1ccccc1.[Ti+4]	n
CC(C)CNc1nc(N=[N+]=[N-])nc(NCC(C)C)n1	n
CC[C@H](C)[C@H](NC(=O)C12CC(NC(C)=O)(C1)C2)C(=O)N(C)[C@H](C[C@@H](OC(C)=O)c1nc(C(=O)N[C@@H](Cc2ccccc2)C[C@H](C)C(=O)OC)cs1)C(C)C	y
C=C(C)[C@@H]1CC[C@]2(C)[C@H](C=CC3=C4C[C@@](C)(CO)CC[C@]4(C)CC[C@]32C)[C@@]1(C)CCCN	n
COc1ccc(-n2cc(-c3ccc(OC)c(OC)c3)nc2SCc2ccccc2)cc1Cl	n
O=C(/C=C/c1cccc(B(O)O)c1)c1cccc(B(O)O)c1	n
CCNCCNc1cc(-c2cccc(C(F)(F)F)c2)c(C#N)c2nc3ccccc3n12	n
CCc1ccccc1-n1c(N)c(C#N)c(-c2ccc(OC)c(OC)c2)c(C#N)c1=O	n

----------
system: M14 melanoma; experiment: NCI tumour cell line growth inhibition, 48 h
Known TGI of a selection of molecules
Metric: TGI (µM)

Molecule	Metric	Qualifier symbol	Observed result
CC1=NN(c2ccccc2)C(=O)C1N=Nc1ccc(Br)c(C)c1 (stereo unspecified)	TGI	>	100
COc1ccccc1OC(=O)/C=C/c1ccccc1	TGI	>	100
O=C(NO)c1cnc(N2CCN(S(=O)(=O)c3ccc4ccccc4c3)CC2)nc1	TGI	=	5.75
COc1ccc(C(=O)c2ccc(-n3c4ccccc4c4ccc5c(c43)C(=O)C=CC5=O)cc2)cc1	TGI	=	7.45
COc1cccc(Nc2nccc(Nc3ccc4[nH]ncc4c3)n2)c1	TGI	=	2.81
CC(=O)NNc1nc(C)c(C(/C=C/c2ccc(NC(C)=O)cc2)=N/NS(=O)(=O)c2ccc(C)cc2)s1	TGI	>	100

----------
tested on: MDA-MB-435; assay: NCI tumour cell line growth inhibition, 48 h
Known TGI of a selection of compounds

Compound	Target or test system	Unit name	Qualifier symbol	TGI
CN1CCN(c2ccc3nc4c(nc3c2C(F)(F)F)C(=O)c2ncccc2C4=O)CC1	MDA-MB-435	µM	=	0.344
CON	MDA-MB-435	µM	>	100
O=[N+]([O-])c1ccc(N2N=C(c3ccc4ccccc4c3O)CC2c2ccc(Cl)cc2Cl)c([N+](=O)[O-])c1 (centres undefined)	MDA-MB-435	µM	>	100
CCOC(=O)c1c(N2CCOCC2)[nH]c(=O)c(C(c2ccc(Cl)c([N+](=O)[O-])c2)c2c(O)c(C(=O)OCC)c(N3CCOCC3)[nH]c2=O)c1O	MDA-MB-435	µM	>	100
COc1ccc(-n2c(=O)n(C)c(=O)n2-c2c(C)c(C)c(C)c(C)c2C)cc1	MDA-MB-435	µM	>	100
CS(=O)(=O)c1nc(Cl)c(Cl)c(C#N)c1Cl	MDA-MB-435	µM	=	7
O=P1(O)c2ccccc2CS(=O)(=O)Cc2ccccc21	MDA-MB-435	µM	>	100
COc1cc2c3c(c1O)C1(C=CC(=O)C=C1)CC3N(C)CC2 (centres undefined)	MDA-MB-435	µM	=	23
Cc1cc(-c2nc3cc(F)ccc3s2)ccc1NC(=O)C(C)N (centres undefined)	MDA-MB-435	µM	=	10.5
CCS/C(Nc1ccccc1)=C(\C#N)C(=O)N/N=C/c1ccc(Cl)cc1Cl	MDA-MB-435	µM	=	2.23
COc1ccc(C2C3=C(COC3=O)N(CCO)c3cc4c(cc32)OCCO4)cc1OC (centres undefined)	MDA-MB-435	µM	=	1.78
N#CC(C#N)=Cc1ccc(-c2ccc(-c3nc4ccccc4o3)cc2)o1	MDA-MB-435	µM	>	100
C=C(C)[C@@H]1CC[C@]2(C)[C@H](C=CC3=C4C[C@@](C)(CO)CC[C@]4(C)CC[C@]32C)[C@@]1(C)CCCN	MDA-MB-435	µM	=	3.2
N#Cc1c(Oc2ccc(F)c(NC(=O)Cc3cccc(C(F)(F)F)c3)c2)ccc2nc(NC(=O)C3CC3)sc12	MDA-MB-435	µM	>	100
CC(C)N(C[C@H]1O[C@@H](n2cnc3c(N)ncnc32)[C@H](O)[C@@H]1O)C1CC(CCc2nc3ccc(C(C)(C)C)cc3[nH]2)C1 (some centres undefined)	MDA-MB-435	µM	>	100
CC[N+](CC)(CC)/C(=N/S(=O)(=O)c1cc(C)c(Cl)cc1S)[N-]S(=O)(=O)c1ccc(Cl)cc1	MDA-MB-435	µM	>	100
NC(=O)NC(=O)C1CCCCC1C(=O)O (centres undefined)	MDA-MB-435	µM	>	100
COC(=O)/C(=C\C(=O)c1ccc(Br)cc1)NN=C(c1ccccc1)c1ccccc1	MDA-MB-435	µM	>	10
COc1ccc(-n2sc(=O)n(Cc3ccc(COC(=O)C(C)c4ccc(CC(C)C)cc4)cc3)c2=O)cc1 (centres undefined)	MDA-MB-435	µM	=	3.93

----------
test system: HT29 colon; test: NCI tumour cell line growth inhibition, 48 h
Known TGI of a selection of compounds
Metric: TGI

Compound	Observed result
COc1cccc(/C=C2\C(=O)N(C(=O)Cc3ccccc3)N=C2C)c1	> 100 µM
COc1ccc(-n2cc(-c3ccc(OC)c(OC)c3)nc2SCc2ccccc2)cc1Cl	> 100 µM
O=C1CSC(/C=C/c2ccccc2)N1c1ccc(-n2c(-c3ccccc3)nc3ccccc3c2=O)cc1 (stereo unspecified)	> 100 µM
CN(CC#N)C(=O)Cc1ccc([N+](=O)[O-])cc1	> 10 µM
COc1ccccc1OC(=O)/C=C/c1ccccc1	> 100 µM
COC(=O)Nc1nc2ccc(Sc3ccccc3)cc2[nH]1	1.29 µM
CC[C@@]1(OC(=O)CN)C(=O)OCc2c1cc1n(c2=O)Cc2cc3c(N)c4c(cc3nc2-1)OCO4	> 100 µM
CC1(C)O[C@@H](CP(c2ccccc2)c2ccccc2)[C@H](CP(c2ccccc2)c2ccccc2)O1	47.7 µM
Nn1c(N=Nc2c(O)[nH]c3ccccc23)n[nH]c1=S	> 100 µM
CC12C(=O)N(CCN)C(=O)C1C1c3ccccc3C2c2ccccc21 (stereo unspecified)	> 100 µM
CON	> 100 µM

----------
Known TGI of a selection of compounds
system: OVCAR-3 ovarian; experiment: NCI tumour cell line growth inhibition, 48 h

Compound	Target or test system	Qualifier symbol	TGI (µM)
O=S(Cc1cc2c(cc1Br)OCO2)c1ccccc1 (stereo not given)	OVCAR-3 ovarian	>	100
C[C@@H]1CN2[C@H]3[C@@H]1CC[C@]31CCC(=O)O[C@]1(C)[C@@H]1CC[C@H]3CCC=C3[C@@H]12	OVCAR-3 ovarian	>	70
O=C(CC1(O)C(=O)Nc2c(Cl)ccc(Cl)c21)c1ccc(C2CC2)cc1 (stereo not given)	OVCAR-3 ovarian	=	16.6
CS(=O)(=O)c1nc(Cl)c(Cl)c(C#N)c1Cl	OVCAR-3 ovarian	=	4.73
Cc1cccnc1CNC1CC(NCc2ncccc2C)CC(NCc2ncccc2C)C1 (stereo not given)	OVCAR-3 ovarian	=	8.94
CCN(CC)c1ccc2nc3c4ccccc4c(=NC(=O)c4ccccc4-c4c5ccc(N(CC)CC)cc5[o+]c5cc(N(CC)CC)ccc45)cc-3oc2c1	OVCAR-3 ovarian	=	6.26
CCCCOc1ccc(S(=O)(=O)/N=C(\NN)Nc2ccc(Cl)cc2)cc1	OVCAR-3 ovarian	=	46.8
Oc1[nH]c2ccccc2c1N=NC(=S)N1CCCC1	OVCAR-3 ovarian	=	17
C[C@]12CC[C@H](O)CC1=CC[C@@H]1[C@@H]2CC[C@]2(C)C(=O)CC[C@@H]12	OVCAR-3 ovarian	>	100
CC(=O)O/C=C\OC1CCCC1	OVCAR-3 ovarian	>	100
